- Tested on: HS 578T breast
- method: NCI tumour cell line growth inhibition, 48 h
Catalogue of TGI values
parameter-measured: TGI (µM)

{"columns": ["molecule", "value-operator", "data-value"],
 "data": [
  ["COc1cccc2c(Nc3ccc(C(=O)O)cc3)cc(-c3ccccc3)nc12", ">", 100],
  ["COc1cc2c3c(c1O)N=NC=3CCN=2", ">", 100],
  ["O=C1CC(c2ccccc2Cl)C2(C(=O)NC(=S)NC2=O)C(c2ccccc2Cl)C1 (stereo unspecified)", "=", 22.8],
  ["O=S(CCc1ccccc1)Nc1ccccc1 (stereo unspecified)", ">", 100],
  ["CC(=O)c1c(SCCN2CCCCCC2)n(-c2ccccc2)c(=S)n(-c2ccccc2)c1=O", "=", 64.1],
  ["COC1(C)OC[C@@]2(C)OC(C)C1(C)C2O[Si](C(C)C)(C(C)C)C(C)C (stereo partly specified)", "=", 86.8]
]}
